# test.details: Henry solubility constant Hcp at 298.15 K (mol/(m3 Pa))
# stated.conditions: reference: Bakierowska and Trzeszczyński (2003)
endpoint.name: Henry solubility constant Hcp

The examples below pair each entry with its known result.
>>> reported("C1=CCCCC1")
0.00033
>>> reported("C/C=C\\CCl [(Z)-1-chloro-2-butene]")
0.0012
>>> reported("Cc1ccccc1")
0.0017
>>> reported("CC(C)(Cl)Cl")
0.00081
>>> reported("C/C=C/CCl [(E)-1-chloro-2-butene]")
0.0031

Please go through the list and note Henry solubility constant Hcp for each compound.
1. C1=CCCC1
2. c1ccccc1
3. ClC1CCCCC1

[0.00023, 0.0018, 0.0028]
